# melting point per record follows

The molecule listed as CCOC(=O)c1nc2scc(CNC(=O)c3ccc(C(=O)OC)cc3)c2c(=O)[nH]1 has a reported melting point of 236 °C

====

# melting point per record follows

CC(NC(=O)NCCCCC1CCSS1)C(=O)NS(N)(=O)=O (stereo not drawn)
156 to 157 °C
COc1cc(C2=NC(C)(C)CO2)cc(OC)c1Br
172 to 174 °C

The compound listed as COc1cccc2c1CC(n1cc[nH]c1=S)CC2 (stereo not drawn) has a reported melting point of 249 to 251 °C

The compound listed as C[C@@H]1CCN(C(=O)C(C)(C)C)[C@@H](C(=O)O)C1 has a reported melting point of 87 to 90 °C

====

# melting point per record follows

COc1c(C)c(C)c(OC)c(CC/C(C)=C/CO)c1C
46 °C
CCOC(=O)c1cc(C#N)c(C)nc1Cl
43 to 45 °C
COC(=O)c1ccc(F)c2c1C=CCO2
73.5 to 74.5 °C

Next, consider the following compound.
The compound listed as CNC(C(=O)NC(N)=O)C(=S)c1cccc2c(C(F)(F)F)c(OC)ccc12 (centres undefined) has a reported melting point of 203 to 204 °C

====

# melting point per record follows

In the examples that follow, each entry is paired with its recorded melting point.
CC(C)n1nc(-c2sc(NC(=O)c3ccccn3)nc2-c2ccccc2)ccc1=O
245 to 246 °C
COC(=O)CCn1c(=O)n(CCN2CCN(c3ccccc3)CC2)c(=O)c2cscc21
133 to 134 °C
CC(C)CC(=O)C1CCC2C3CN(C(C)(C)C)C4=CC(=O)CCC4(C)C3CCC12CC(=O)O (stereo not drawn)
169 to 171 °C
NC(c1ncn(N)n1)C1CCN(CC2COc3ccccc3O2)CC1 (stereo not drawn)
157 to 158 °C
CN(CCc1ccccn1)C(=O)CCSc1cc(Cl)c(O)c(Cl)c1
120 to 123 °C

The compound listed as CCCCCCCCCCCCCCCCN[C@H](C(=O)N[C@H](C(=O)O)C(C)C)C(C)C has a reported melting point of 120 to 123 °C

The compound listed as CN1C(c2ccc(F)cc2)=NC(C(F)(F)F)(C(F)(F)F)C1NC(=O)c1ccc(N2CCCCC2)cc1 (stereo not drawn) has a reported melting point of 128 to 129 °C

The compound listed as CCCCC(=O)OCC1OC(n2cnc3c(OC)nc(N)nc32)C(O)C1O (stereo not drawn) has a reported melting point of 105 °C

====

measure-name: melting point

In the examples that follow, each entry is paired with its recorded melting point.
CCCn1c(=O)c2c(nc(/C=C/c3cccs3)n2C)n(CCC)c1=O
185 to 186 °C
O=C1COc2cc(NC(=O)C(=O)N3CCC(C(O)c4ccccc4)CC3)ccc2N1 (centres undefined)
195 to 197 °C
COC(=O)c1ccc(C(=O)CC(=O)/C=C/c2ccc(O)c(OC)c2)cc1
187 to 189 °C

The molecule listed as Cc1nn(-c2cc(Oc3ccc([N+](=O)[O-])cc3)c(Cl)cc2Cl)c(=O)n1C(F)F has a reported melting point of 99 to 101 °C

====

# melting point per record follows

In the examples that follow, each entry is paired with its recorded melting point.
O=C(O)COc1ccc(Cl)c2c(=O)c3ccccc3sc12
230 to 232 °C
CCCOc1cc(NC(=O)NC(C)C)ccn1
77 to 79 °C
Nc1cc(I)cc(CF)c1
48.5 to 50 °C
O=C1Cn2c(nc3ccccc3c2=O)-c2ccccc2N1
318 to 319 °C
CN1CCc2c(cccc2NC(=O)c2ccccc2I)C1
215 to 216 °C
CCOC(=O)c1cn(C)c2cc(OC)ccc2c1=O
198 to 200 °C
Cc1ccc2c(c1)nc(C)c(=O)n2-c1ccc(Cl)cc1
223 to 225 °C
CCC1c2ccc(C)n2-c2ccc(F)cc2N1S(=O)(=O)c1ccc(O)c(C)c1 (stereo not drawn)
199 to 201 °C
CC(C)(CO)COc1ccc(NC(=O)c2csc3c2CCCC3)cc1C#N
148 to 150 °C
COc1cc(C(=O)c2ccc(N)c(C(=O)O)c2)n2ccccc12
106 °C

The molecule listed as C=C(C)COc1ccc(Br)cc1CN(CC)c1ccc(C(=O)NS(=O)(=O)c2ccccc2)cn1 has a reported melting point of 193 °C

The molecule listed as CCNC(=O)C(=O)[C@H](Cc1ccccc1)NC(=O)[C@H](CC(C)C)NC(=O)OCCOC has a reported melting point of 138 °C

The molecule listed as CN(C)CCCCC1CCCCN1C(=O)N1c2ccccc2C(=O)Nc2cccnc21 (stereo not drawn) has a reported melting point of 145 to 147 °C

The molecule listed as CCCCCCCCCCOc1cc(OCCCCCCCCCC)cc(C(=O)N(CC(=O)O)CC(=O)O)c1 has a reported melting point of 81 to 84 °C

====

measure-name: melting point

In the examples that follow, each entry is paired with its recorded melting point.
N#Cc1c(N2CCCCC2)cc(-c2ccc3ccccc3c2)c2c1-c1ccccc1C2
136 to 138 °C
O=c1c(-c2cccc(C(F)(F)F)c2)coc2cc(O)c(O)cc12
274 to 275 °C
Cc1ccc(S(=O)(=O)NCc2ccc(CCN3CCN(c4ccncc4)CC3)cc2)cc1
180 to 182 °C

The molecule listed as O=C(NCCCCl)Nc1c(Cl)cccc1C(=O)O has a reported melting point of 124 to 125 °C

The molecule listed as CCOC(=O)/C=C/c1ccc(N2CCC3(CC2)OCCO3)cc1 has a reported melting point of 115 to 116 °C

The molecule listed as C=CCNC1=NS(=O)(=O)c2cc(Cl)cnc2N1 has a reported melting point of 224 to 227 °C

The molecule listed as Cc1ccc2c(c1)nnn2C(=O)N(c1ccccc1)c1ccccc1 has a reported melting point of 132 to 133 °C

The molecule listed as CCS(=O)(=O)c1ccc2c(c1)nc(CC(C)(C)C)n2CC1(O)CCCC1 has a reported melting point of 172 °C

The molecule listed as Cc1csc2c1c(=O)oc(=O)n2Cc1ccccc1 has a reported melting point of 183 °C

The molecule listed as O=C(O)C1CCc2c(c3ccccc3n2C(=O)c2ccc3c(c2)OCO3)C1 (centres undefined) has a reported melting point of 198 to 200 °C

The molecule listed as CSC(=Nc1c(C)nn(C)c1C)Nc1cc(Cl)ccc1C has a reported melting point of 134 to 135 °C

The molecule listed as O=C(NCCN1CCC(n2c(=O)[nH]c3ccccc32)CC1)c1ccco1 has a reported melting point of 229 °C

====

measure-name: melting point

Cc1cc(NCc2ccccc2)c2c(c1)C(c1ccc(C(C)C)cc1)C(C)(C)O2 (centres undefined)
80 to 81 °C
CCOC(=O)C1=Cc2cccc(C(F)(F)F)c2OCC1
57 to 59 °C
CNCCOc1ccc(C2=C(c3ccccc3)CCCc3cc(O)ccc32)cc1
184 to 187 °C
CCN1C(c2nnc(-c3ccccc3)o2)=C(OC(=O)C2CCCC2)c2ccccc2S1(=O)=O
194 to 196 °C
C=CCOc1cccc2c1ONC(=O)C2
174 to 175 °C

The molecule listed as Cn1cc(-c2cc3cccnc3[nH]2)c2cc(OCC(O)CO)ccc21 (centres undefined) has a reported melting point of 182 to 185 °C

The molecule listed as CCCCc1nc(=O)c2cc(I)ccc2[nH]1 has a reported melting point of 258 to 260 °C

The molecule listed as Cc1cc(Nc2cncc(Nc3cccc(NC(=O)c4ccccc4)c3)n2)n[nH]1 has a reported melting point of 243 to 244 °C

The molecule listed as CCc1c(Sc2ccccc2)[nH]c(=O)[nH]c1=O has a reported melting point of 218 to 219 °C

The molecule listed as CCCCc1nc2ccn(Cc3ccc(C(=O)O)cc3)c(=O)c2n1Cc1ccc(-c2ccccc2-c2nnn[nH]2)cc1 has a reported melting point of > 300 °C

The molecule listed as CC(SC1COC(c2ccc(C(=O)Nc3ccc(Br)cc3)cc2)OC1)C(O)(Cn1cncn1)c1ccc(F)cc1F (centres undefined) has a reported melting point of 221 °C

The molecule listed as CCCCCCCCCC(C)NC(=O)C=C(C)c1cccc([N+](=O)[O-])c1 (centres undefined) has a reported melting point of 72.5 to 74 °C

The molecule listed as CCOC(=O)C(C)Oc1ncn(-c2ccc(Cl)c(Cl)c2)n1 (centres undefined) has a reported melting point of 69 to 71 °C

The molecule listed as Cc1nc(NC(=O)NC(=O)c2c(F)cccc2F)ccc1-c1ccccc1 has a reported melting point of 206 to 208 °C

====

measure-name: melting point

In the examples that follow, each entry is paired with its recorded melting point.
O=c1ccc(Oc2ccc(Cl)cc2)n[nH]1
202 °C
Cc1cc2cc(C(=O)O)[nH]c2cc1C
266 °C
O=C(NC[C@H]1CN(c2ccc(N3CCS(=O)(=O)CC3)c(F)c2)C(=O)O1)C(F)F
177 to 178 °C
CC(C)CNC(=O)c1ccc(C2(F)CC2c2ccc(Br)c(Br)c2)cc1 (stereo unspecified)
132 °C
CCCc1nc2ccc(N)cc2n1Cc1ccccc1Cl
121 to 122 °C
COC(C)(C)O[C@@H]1C(=O)N(C(=O)OC(C)(C)C)[C@@H]1c1ccccc1 (relative stereo)
90 to 92 °C

The molecule listed as CN(C)c1nc2sc3c(NCCN4CCOCC4)ncnc3c2c2c1CCC(C)(C)C2 has a reported melting point of 173 to 175 °C

The molecule listed as COc1ccccc1NC(=O)N1CCC(=O)C(C(c2ccccc2)c2ccccc2)C1 (stereo unspecified) has a reported melting point of 150 to 151 °C

The molecule listed as COC(=O)[C@H]1CC[C@@H](C(=O)O)CN1S(C)(=O)=O (racemic) has a reported melting point of 130 to 133 °C
